target: IRAK4 (Homo sapiens, UniProt Q9NWZ3); construct: Degradation of IRAK4 in OCI-LY10 was quantitatively measured using Meso Scale Discovery technology; endogenous in cells; host or cells: OCI-LY10; assay: IRAK4 MSD Degradation in OCI-LY10; assay type: cell-based; conditions: OCI-LY10 cells, 24 hrs incubation, MSD; read-out: IRAK4 degradation in OCI-LY10 at 24 hrs: DC50
Sequence (Q9NWZ3 whole entry): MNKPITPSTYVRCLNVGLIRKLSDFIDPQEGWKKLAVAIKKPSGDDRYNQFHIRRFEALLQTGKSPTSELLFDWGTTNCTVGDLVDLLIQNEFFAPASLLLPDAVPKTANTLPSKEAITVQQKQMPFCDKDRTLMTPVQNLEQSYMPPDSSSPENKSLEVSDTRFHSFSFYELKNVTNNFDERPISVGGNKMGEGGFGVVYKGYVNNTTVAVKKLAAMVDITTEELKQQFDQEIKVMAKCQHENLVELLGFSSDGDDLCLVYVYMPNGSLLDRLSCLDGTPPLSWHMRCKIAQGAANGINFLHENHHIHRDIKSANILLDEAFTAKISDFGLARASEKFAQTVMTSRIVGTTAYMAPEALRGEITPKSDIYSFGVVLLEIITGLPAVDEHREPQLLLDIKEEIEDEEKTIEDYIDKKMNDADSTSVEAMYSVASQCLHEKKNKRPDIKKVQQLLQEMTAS
measured.property: DC50

{"compound": "Cn1c(=O)n(C2CCC(=O)NC2=O)c2ccnc(N3CCN([C@@H]4CCN(C[C@H]5CC[C@H](n6cc(NC(=O)c7cnn8ccc(N9C[C@H]%10C[C@@H]9CO%10)nc78)c(C(F)F)n6)CC5)CC4(F)F)CC3)c21 (some centres unmarked)", "reported.measurement": "< 10 nM"}

Could you now consider this next compound?
GET /value?item= Cn1c(=O)n(C2CCC(=O)NC2=O)c2cccc(C3CCN(C[C@H]4CC[C@H](n5cc6cc(NC(=O)c7cccc(C(F)F)n7)ncc6n5)CC4)CC3(F)F)c21 (some centres unmarked) &field=DC50 returns < 10 nM
